MIC overview
- Test system: E. faecium BCRC 15B0132 (VRE)
- Assay remarks: microbe, parasite or virus in culture
- Type: cell-based, Enterococcus faecium
- Experimental parameters: BCRC 15, 16 h
Non-standard residues stand in square brackets, D forms with d. Residues, ends and D or L forms follow the SMILES beside them. Bip = N[C@@H](Cc1ccc(-c2ccccc2)cc1)C(=O)O; Dip = N[C@H](C(=O)O)C(c1ccccc1)c1ccccc1; 2Nal = N[C@@H](Cc1ccc2ccccc2c1)C(=O)O
Give the quantity in µg/mL, number only.

Some solved cases for reference:
Compound	Result value
CC(=O)N[C@@H](C)C(=O)N[C@@H](CCCCN)C(=O)N[C@@H](CCCNC(=N)N)C(=O)N[C@@H](Cc1ccc2ccccc2c1)C(=O)N[C@@H](Cc1ccc2ccccc2c1)C(=O)NCC(=O)N[C@@H](Cc1ccc(O)cc1)C(=O)N[C@@H](CCCCN)C(=O)N[C@@H](CCCNC(=N)N)C(=O)N[C@@H](CCCCN)C(=O)N[C@@H](Cc1ccccc1)C(=O)N[C@@H](Cc1ccc2ccccc2c1)C(N)=O [Nal-P-113] (Ac-AKR[2Nal][2Nal]GYKRKF[2Nal]-NH2)	4
CC(=O)N[C@@H](C)C(=O)N[C@@H](CCCCN)C(=O)N[C@@H](CCCNC(=N)N)C(=O)N[C@@H](Cc1ccc(-c2ccccc2)cc1)C(=O)N[C@@H](Cc1ccc(-c2ccccc2)cc1)C(=O)NCC(=O)N[C@@H](Cc1ccc(O)cc1)C(=O)N[C@@H](CCCCN)C(=O)N[C@@H](CCCNC(=N)N)C(=O)N[C@@H](CCCCN)C(=O)N[C@@H](Cc1ccccc1)C(=O)N[C@@H](Cc1ccc(-c2ccccc2)cc1)C(N)=O [Bip-P-113] (Ac-AKR[Bip][Bip]GYKRKF[Bip]-NH2)	4

Note: attention shifts to another entry.
// returns reported MIC for input CC(=O)N[C@@H](C)C(=O)N[C@@H](CCCCN)C(=O)N[C@@H](CCCNC(=N)N)C(=O)N[C@H](C(=O)N[C@H](C(=O)NCC(=O)N[C@@H](Cc1ccc(O)cc1)C(=O)N[C@@H](CCCCN)C(=O)N[C@@H](CCCNC(=N)N)C(=O)N[C@@H](CCCCN)C(=O)N[C@@H](Cc1ccccc1)C(=O)N[C@H](C(N)=O)C(c1ccccc1)c1ccccc1)C(c1ccccc1)c1ccccc1)C(c1ccccc1)c1ccccc1 [Dip-P-113] (Ac-AKR[Dip][Dip]GYKRKF[Dip]-NH2)
4
